Origin of measurements: ChEMBL document CHEMBL5120749

Recorded log(RBA) by entry
Target: Estrogen receptor (Homo sapiens) (UniProt P03372)
Sequence (P03372 whole entry): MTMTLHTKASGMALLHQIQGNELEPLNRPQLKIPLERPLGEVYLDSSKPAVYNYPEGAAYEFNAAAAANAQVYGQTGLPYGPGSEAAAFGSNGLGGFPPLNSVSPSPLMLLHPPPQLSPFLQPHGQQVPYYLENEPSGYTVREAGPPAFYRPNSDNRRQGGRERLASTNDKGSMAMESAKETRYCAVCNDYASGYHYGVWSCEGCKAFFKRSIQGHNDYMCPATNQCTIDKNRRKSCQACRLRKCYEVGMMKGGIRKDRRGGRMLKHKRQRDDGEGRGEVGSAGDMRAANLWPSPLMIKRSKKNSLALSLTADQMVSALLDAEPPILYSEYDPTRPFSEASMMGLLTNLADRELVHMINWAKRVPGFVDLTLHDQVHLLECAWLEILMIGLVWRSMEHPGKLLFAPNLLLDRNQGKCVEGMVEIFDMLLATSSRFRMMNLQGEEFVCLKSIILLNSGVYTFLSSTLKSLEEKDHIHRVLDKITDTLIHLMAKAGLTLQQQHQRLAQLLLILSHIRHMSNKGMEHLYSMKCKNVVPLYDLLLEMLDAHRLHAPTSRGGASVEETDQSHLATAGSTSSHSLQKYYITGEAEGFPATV
Conditions: filed as antagonist
Description: Relative binding affinity to ERalpha (unknown origin)
Measured Endpoint: log(RBA)

[[record]]
compound = "CC(CN1CCCC2CCCNC21)OCC(=O)N1Nc2cc(O)ccc2C2COc3cc(O)ccc3C21 (stereo not given)"
reported = 2.12

[[record]]
compound = "CNCCOc1ccc(N2Nc3c(c(=O)oc4cc(O)ccc34)-c3ccc(O)cc32)cc1"
reported = -0.26

[[record]]
compound = "O=C(COCN1CCCCC1)CN1Nc2cc(O)ccc2-c2c1c1ccc(O)cc1oc2=O"
reported = 2.07

[[record]]
compound = "Nc1ccc(-c2c(C(=O)c3ccc(OCCNS(=O)(=O)O)cc3)c3ccc(O)cc3oc2=O)cc1"
reported = 2.36

[[record]]
compound = "Cc1cc(N2Nc3c(c(=O)oc4cc(O)ccc34)-c3ccc(O)cc32)ccc1OCCN1CCC=C(C(=O)O)C1"
reported = -0.21

[[record]]
compound = "O=C(COCN1CCCCC1)CN1Nc2c(c(=O)oc3cc(O)ccc23)-c2ccc(O)cc21"
reported = -0.63

[[record]]
compound = "O=C(c1ccc(OCCN2C(=O)CCC2=O)cc1)c1c(-c2ccc(O)cc2)oc(=O)c2cc(O)ccc12"
reported = 2.07

[[record]]
compound = "Cc1cc(C(=O)CNc2c(-c3ccc(O)cc3)c(=O)oc3cc(O)ccc23)ccc1OCCN1CCC=C(C(=O)O)C1"
reported = 2.67

[[record]]
compound = "O=C(c1ccc(OCCN2C=Cc3ccccc3C2)cc1)c1c(-c2ccc(O)cc2)oc(=O)c2cc(O)ccc12"
reported = 2.1

[[record]]
compound = "Nc1ccc(-c2c(C(=O)c3ccc(OCCN4CC(C(=O)O)=CCC4=O)cc3)c3ccc(O)cc3[nH]c2=O)cc1"
reported = 2.38

